The reported numbers originate from patent EP0397859A1.

biological target: cyclooxygenase (Oryctolagus cuniculus, UniProt O97554); construct: The washed platelets thus produced were used as an enzyme source for cyclooxygenase; experiment: Cyclooxygenase-inhibiting activity, washed platelets as enzyme source, 14C-arachidonic acid, TLC radiochromatogram; settings: washed rabbit platelets, 37°C for 3 min; sum of radioactivities of prostaglandin E2, prostaglandin D2 and HHT; read-out: 50% inhibitory concentration (mole)
Sequence (O97554 31-606): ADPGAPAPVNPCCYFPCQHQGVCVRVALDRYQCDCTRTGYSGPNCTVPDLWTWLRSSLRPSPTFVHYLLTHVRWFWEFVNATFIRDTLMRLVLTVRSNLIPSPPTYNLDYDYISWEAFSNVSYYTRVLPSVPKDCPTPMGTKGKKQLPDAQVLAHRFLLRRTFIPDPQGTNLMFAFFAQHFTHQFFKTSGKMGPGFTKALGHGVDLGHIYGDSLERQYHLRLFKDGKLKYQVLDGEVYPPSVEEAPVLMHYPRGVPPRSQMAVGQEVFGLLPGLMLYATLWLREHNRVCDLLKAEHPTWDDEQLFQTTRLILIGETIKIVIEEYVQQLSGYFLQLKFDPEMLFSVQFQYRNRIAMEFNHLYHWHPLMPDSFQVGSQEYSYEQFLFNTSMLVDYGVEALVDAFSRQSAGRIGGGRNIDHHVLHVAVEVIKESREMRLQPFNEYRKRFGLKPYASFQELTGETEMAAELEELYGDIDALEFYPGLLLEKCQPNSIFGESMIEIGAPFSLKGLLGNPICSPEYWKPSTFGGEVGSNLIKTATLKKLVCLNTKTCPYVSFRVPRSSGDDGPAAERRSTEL
pIC50: −log10 of the molar value.

molecule	pIC50
COc1ccc(-c2ncc(C#N)nc2-c2ccc(OC)cc2)cc1 [Example 13, 2,3-bis(p-methoxyphenyl)-5-cyanopyrazine]	5.30
